Target: His6-AspH315–758 (human aspartate/asparagine-β-hydroxylase, AspH) (Homo sapiens)
Construct: N-Terminally His6-tagged human AspH315–758 (His6-AspH315–758) was produced in E. coli BL21 (DE3) cells; made in house; host or cells: E. coli BL21 (DE3), pET-28a(+) vector
Sequence (Q12797 315-758): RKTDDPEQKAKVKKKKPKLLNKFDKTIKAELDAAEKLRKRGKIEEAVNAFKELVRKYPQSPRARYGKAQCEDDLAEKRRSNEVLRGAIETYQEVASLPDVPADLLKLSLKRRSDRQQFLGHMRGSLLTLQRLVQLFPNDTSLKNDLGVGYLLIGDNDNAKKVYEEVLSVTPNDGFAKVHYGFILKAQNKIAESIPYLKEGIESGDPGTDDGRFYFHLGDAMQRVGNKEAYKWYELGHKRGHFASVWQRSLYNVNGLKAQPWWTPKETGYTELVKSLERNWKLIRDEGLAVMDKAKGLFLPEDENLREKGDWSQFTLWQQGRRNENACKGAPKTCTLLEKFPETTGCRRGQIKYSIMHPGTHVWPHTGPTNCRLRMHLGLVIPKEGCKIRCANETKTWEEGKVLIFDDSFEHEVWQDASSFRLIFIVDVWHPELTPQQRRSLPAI
Experiment: SPE-MS AspH inhibition assay (LOPAC screen at fixed 20 μM and IC50 dose-response), hydroxylation of cyclic peptide hFX-CP101–119
Type: biochemical
Conditions: plate 5 (Pfitzer), test compounds at fixed 20 μM; mean conversion DMSO 32.88
Quick list: Plate 5 (% conversion) per entry.
Numbers only; they are read as %.

Below, each entry is followed by its recorded Plate 5 (% conversion) result.
CS(=O)(=O)c1ccc(-n2nc(C(F)(F)F)cc2-c2ccc(F)cc2)cc1 [SC-58125]    36.09
COc1cc(OC)cc(-c2cc3cnc(N)nc3nc2NC(=O)NC(C)(C)C)c1 [PD-166866]    38.34

Which Plate 5 (% conversion) is listed for c1cnc2cc3c(cc2n1)[C@@H]1CNC[C@H]3C1 [Varenicline] ? 10.50

Any idea what Plate 5 (% conversion) was measured for CCCN1CCC[C@@H](c2cccc(S(C)(=O)=O)c2)C1 [OSU6162] ? 26.77

====

Biological target: His6-AspH315–758 (human aspartate/asparagine-β-hydroxylase, AspH) (Homo sapiens, UniProt Q12797)
Construct: N-Terminally His6-tagged human AspH315–758 (His6-AspH315–758) was produced in E. coli BL21 (DE3) cells; made in house; host or cells: E. coli BL21 (DE3), pET-28a(+) vector
Assay: SPE-MS AspH inhibition assay (LOPAC screen at fixed 20 μM and IC50 dose-response), hydroxylation of cyclic peptide hFX-CP101–119
Assay type: biochemical
Conditions: LOPAC Plate 4, compound at 20 uM, substrate conversion
Where a name gives a salt, the structure may show the parent alone.
Known % conversion of a selection of compounds
Give just the numeric value; % need not be written.

Completed entries (count: 5):
Cc1[nH]c(=O)c(C#N)cc1-c1ccc2nccn2c1.Cl [Olprinone hydrochloride]    31.06
COc1cc2c(cc1OC)-c1c/c(=N\c3c(C)cc(C)cc3C)n(C)c(=O)n1CC2 [Trequinsin hydrochloride]    28.50
O=C(c1ccc(OCCN2CCCCC2)cc1)c1c(-c2ccc(O)cc2)sc2cc(O)ccc12 [Raloxifene hydrochloride]    40.15
NC(=Nc1ccccc1)NC(=O)c1nc(Cl)c(N)nc1N [Phenamil methanesulfonate]    39.99
N=C(N)NC(=N)Nc1ccccc1 [1-Phenylbiguanide]    32.33

# get_value(readout='% conversion', item= O=C(CCCN1CCC(O)(c2cccc(C(F)(F)F)c2)CC1)c1ccc(F)cc1 [Trifluperidol hydrochloride] ) 30.59

If you can, please state the reported % conversion value of O=C1Cc2cc(CCN3CCN(c4nsc5ccccc45)CC3)c(Cl)cc2N1 [Ziprasidone hydrochloride monohydrate] . 26.15

Given N#C/C(=C\c1ccc(O)c(O)c1)C(=O)c1ccc(O)c(O)c1 , state its recorded % conversion. 29.27

Which % conversion value is on record for Nc1nc2c(cnn2CCc2ccccc2)c2nc(-c3ccco3)nn12 ? 31.57

Any idea what its % conversion is? The compound is CCCN1CCC[C@H](c2cccc(O)c2)C1.Cl [R(+)-3PPP hydrochloride] 35.27

# input compound: Nc1nc2ccc(OC(F)(F)F)cc2s1 ; wanted: its % conversion 38.21

Tell me the measured % conversion of CCCN1CCC[C@@H]2Cc3nc(N)ncc3C[C@H]21.Cl.Cl [Quinelorane dihydrochloride] , please. 33.91

Given COc1ccc(/C=C2\COc3ccc(C)cc3C2=O)cc1O , state its recorded % conversion. 32.74

Return reported % conversion; argument: Nc1ccc(-c2ccc3ccccc3n2)cc1 [BF-170 hydrochloride] 37.31

Given COc1ccc(C(=O)NCc2cccnc2)cc1C(=O)NCc1cccnc1 [Picotamide] , state its recorded % conversion. 30.17

Look up % conversion: Cn1c(=O)c(-c2c(Cl)cccc2Cl)cc2cnc(Nc3ccc(N4CCOCC4)cc3)nc21 39.27

Which % conversion value belongs to CC(=O)S[C@@H]1CC2=CC(=O)CC[C@]2(C)[C@H]2CC[C@@]3(C)[C@@H](CC[C@@]34CCC(=O)O4)[C@H]12 ? 41.84
